- Method Notes: binders of probe aFST on microarray, primary screen, stem cell growth factor project, biochemical, small-molecule microarray, fluorescence 635/667 (AID 1086);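 note: score merges 667 nm fluorescence with signal-to-noise of each printed compound spot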
- Measurement Context: higher = more signal
# if value of composite z-score reaches 0.2, tag criterion met; if it stays below, tag criterion not met

• O=C(CS)NCCCCCNC(=O)[C@H]1C[C@H]2C(=O)N[C@@H](Cc3ccccc3)C(=O)N2[C@H]1c1ccc(O)cc1 = criterion met
• C=C(COC)C(=O)CC[C@H](OC(=O)c1ccccc1-c1ccccc1C(=O)O)c1cccc(OCCO)c1 = criterion not met
• COc1ccc([Si](C)(C)[C@@H]2[C@@H](CCO)O[C@]3(C(=O)N(Cc4ccccc4)c4ccccc43)[C@H]2C)cc1 = criterion not met
• [N-]=[N+]=NCc1ccccc1C[C@]1(C(N)=O)N=C(c2ccc(OCCCO)cc2)O[C@H]1c1ccccc1CN=[N+]=[N-] = criterion met
• C=C(CCCC)/C(=C/C[C@@H](OC(=O)c1ccncc1)c1ccc(CO)o1)c1cnc2ccccc2c1 = criterion met
• COc1ccc([Si](C)(C)[C@H]2[C@H](CC(=O)N3Cc4ccccc4C[C@H]3CO)O[C@@]3(C(=O)N(Cc4cccc(N5CCOC5=O)c4)c4ccccc43)[C@@H]2C)cc1 = criterion not met
• CSCC[C@@H]1NC(=O)CC=C[C@@H](C)COC(=O)[C@H](CCSC)NC(=O)CC=C[C@@H](C)COC1=O = criterion not met
• CC(C)(C)OC(=O)CC[C@]1(C(=O)NCCN2CCOCC2)N=C(c2ccc(OCCCO)cc2)O[C@H]1c1ccccc1CN=[N+]=[N-] = criterion met
• COCCOC(=O)N1C(=O)[C@@]2(c3cc(C#CC4(O)CCCCCC4)ccc31)[C@H](C(=O)N1CCCCCCC1)[C@H]1C(=O)O[C@H](c3ccccc3)[C@H](c3ccccc3)N1[C@@H]2c1ccc(O)cc1 = criterion met
• COCCOC(=O)N1C(=O)[C@@]2(c3cc(C#CC4=CCCCC4)ccc31)[C@H](C(=O)NC[C@H](O)c1ccccc1)[C@H]1C(=O)O[C@H](c3ccccc3)[C@H](c3ccccc3)N1[C@@H]2c1ccc(OCCO)cc1 = criterion met
• COCCOC(=O)N1C(=O)[C@@]2(c3cc(C#CCCO)ccc31)[C@H](c1ccc(O)cc1)N1[C@H](c3ccccc3)[C@H](c3ccccc3)OC(=O)[C@H]1[C@@H]2C(=O)Nc1nc2ccccc2s1 = criterion met
• C[C@@H]1NC(=O)[C@H](Cc2ccccc2)NC(=O)[C@@]23C(=O)N[C@@H](Cc4ccccc4)C2[C@H](C)[C@@]2(C)O[C@H]2C3/C=C/C/C=C\CNC1=O (stereo partly drawn) = criterion not met
• CCCNC(=O)[C@@H]1c2ccccc2C(=O)N(C2CCCCC2)[C@H]1c1ccc(CO)cc1 = criterion met

---

- Method Notes: compound binding in COS7 lysate, probe aLAP1, primary screen, cell lysate, small-molecule microarray (AID 1124);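 note: lysate comes from COS7 cells expressing LAP1 and is applied at 0.3 µg/mL; score merges spot fluorescence near 667 nm with signal-to-noise over triplicate slides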
- Measurement Context: probe aLAP1, fluorescence, higher = more signal
Readout Name: composite z-score

• COc1cc(CO)cc(I)c1O[C@H]1C=C(C(=O)NCCO)C[C@@H](N(CC2CCCCC2)C(=O)c2cc3ccccc3oc2=O)[C@@H]1O = 0.379
• O=C/C=C/c1ccc(/C=C/c2ccccc2)cc1 = 0.103
• COCCOC(=O)N1C(=O)[C@@]2(c3cc(C#CCNC(N)=O)ccc31)[C@H](c1ccc(OCCO)cc1)N1[C@H](c3ccccc3)[C@H](c3ccccc3)OC(=O)[C@H]1[C@@H]2C(=O)Nc1nc2ccccc2s1 = 0.338
• COC(=O)[C@H]1[C@@H]2COc3ccccc3[C@H]2N[C@H]1C(=O)OC = 0.315
• CC(C)(C)OC(=O)CC[C@@]1(C(=O)NCc2ccccc2)N=C(c2ccc(OCCCO)cc2)O[C@@H]1c1ccccc1 = 0.494
• CCCNC(=O)[C@@]1(Sc2ccc(C)cc2)CC(=O)N(Cc2ccccc2Cl)[C@@H]1c1ccc(CO)cc1 = 1.2
• O=C1O[C@H](c2ccccc2)[C@H](c2ccccc2)N2[C@H]1[C@@H](C(=O)Nc1nc3ccccc3s1)[C@]1(C(=O)Nc3ccc(C#CC4=CCCCC4)cc31)[C@H]2c1ccccc1OCCO = -0.189
• C=CCC(OC(C)=O)[C@@H]1[C@@H](N(Cc2cccc3ccccc23)C(=O)c2ccc(C)cc2)c2cc(OCCCO)ccc2N1C(=O)c1ccc(-c2ccccc2)cc1 (some centres not stated) = -0.105
• COCCOC(=O)N1C(=O)[C@@]2(c3cc(C#CCNC(N)=O)ccc31)[C@H](C(=O)N1CCCCCCC1)[C@H]1C(=O)O[C@H](c3ccccc3)[C@H](c3ccccc3)N1[C@@H]2c1ccccc1OCCO = 0.417
• O=C(CS)NCCCCCCNC(=O)[C@@H]1C[C@@H]2C(=O)N[C@@H](Cc3ccccc3)C(=O)N2[C@@H]1c1ccc(O)cc1 = 1.47
• CCN1C(C)=C(C(=O)OC)[C@@H](c2ccccc2)N2C(=O)[C@@]3(C(=O)OC)O[C@@]12[C@@H]1C(=O)N(c2ccccc2)C(=O)[C@@H]13 = 0.581
• C=CCNC(=O)[C@H]1[C@@H]2C(=O)O[C@@H](c3ccccc3)[C@@H](c3ccccc3)N2[C@@H](c2ccc(O)cc2)[C@]12C(=O)Nc1ccc(C#CCNC(N)=O)cc12 = 0.0128
• N#Cc1ccc(NN2C(C(O)CCc3ccccc3)C=CC3C(=O)N(c4ccccc4)C(=O)C32)cc1 (configuration not stated) = 0.647
• COc1ccc([Si](C)(C)[C@H]2[C@H](CCO)O[C@@]3(C(=O)N(Cc4ccc(N5CCCCC5=O)cc4)c4ccccc43)[C@@H]2C)cc1 = 0.109
• C=CC(=O)O[C@@H](Cc1ccccc1)[C@H]1C2C=CCCC=C2CN1Cc1cccc(Cl)c1 (some centres not stated) = -0.454
• C=CC[C@@]12N=C(c3ccc(OCCCO)cc3)O[C@@H]1c1ccccc1CN(Cc1ccccc1)C2=O = 0.377
• C[N+](C)(C)CCCCNC(=O)[C@@H]1C[C@@H]2C(=O)N3CCC[C@H]3C(=O)N2[C@@H]1c1cccc(OCCO)c1 = 0.248
• O=C1O[C@@H](c2ccccc2)[C@@H](c2ccccc2)N2[C@@H](c3ccccc3OCCO)[C@]3(C(=O)Nc4ccc(C#CC5=CCCCC5)cc43)[C@@H](C(=O)O)[C@H]12 = 0.659
• CN(C)CCCC[C@@H]1NC(=O)[C@@H]2C[C@H](C(=O)NCCCCCNC(=O)CS)[C@H](c3ccc(O)cc3)N2C1=O = 0.24
• CCCN1C(=O)[C@@]2(CCS(=O)(=O)c3ccccc3)N=C(c3ccc(OCCCO)cc3)O[C@H]2c2ccccc21 = 0.163
• CO[C@]12C=C(Br)[C@@H](C[C@@H]1c1ccccc1)[C@@]1(CO1)C2=O = -0.0571
• CCOC(=O)C1=CC[C@@H](c2ccc(-c3ccc(OCc4ccccc4)cc3)c(OC)c2)N(S(=O)(=O)c2ccc(C)cc2)[C@H]1c1ccccc1 = 0.87
• O=C1C2C=CC(C(O)C(c3ccccc3)c3ccccc3)N(Nc3ccc([N+](=O)[O-])cc3)C2C(=O)N1c1ccccc1 (configuration not stated) = 0.953
• COc1cc2c(cc1OC)CN(C(=O)[C@H]1[C@@H]3C(=O)O[C@@H](c4ccccc4)[C@@H](c4ccccc4)N3[C@@H](c3ccccc3OCCO)[C@]13C(=O)Nc1ccc(C#CC4(O)CCCCCC4)cc13)CC2 = 0.982
• CCOC(=O)C[C@H]1[C@H](OC(=O)c2cc3ccccc3oc2=O)[C@@H](NC(=O)C2CCCCC2)c2cc(OCCCO)ccc2N1C(=O)c1ccc2ccccc2n1 = -0.108
• C=CCN1C(=O)[C@@]2(Cc3ccccc3)N=C(c3ccc(OCCCO)cc3)O[C@H]2c2ccccc21 = 0.66
• COCCCNC(=O)[C@@]1(c2ccc([N+](=O)[O-])cc2)CC(=O)N(C2CCCCC2)[C@@H]1c1ccc(CO)cc1 = 1.63

---

- Experimental System: Follistatin (Homo sapiens)
- Method Notes: follistatin binders on small-molecule microarrays, primary screen, biochemical, small-molecule microarray, 635/667 nm fluorescence (AID 1132)
- Measurement Context: FST binding, 635 nm fluorescence, higher = more signal
Readout Name: composite z-score

- N#Cc1ccc(NN2C(C(O)CCc3ccccc3)C=CC3C(=O)N(c4ccccc4)C(=O)C32)cc1 (centres undefined): 0.353
- Cc1ccc(S[C@]2(C(=O)NC(C)C)CC(=O)N(C3Cc4ccccc4C3)[C@@H]2c2ccc(CO)cc2)cc1: 0.34
- CO[C@H]1COC(=O)[C@H](C)COC(=O)[C@H](Cc2ccccc2)NC(=O)CC=C[C@H]1C: 1.42
- COC(=O)[C@@]1(Cc2ccc(OC)cc2)[C@H]2c3cc(C(=O)N(C)C)n(CCc4ccc(OC)c(Br)c4)c3C[C@H]2CN1C(=O)c1ccccc1: 0.85
